Origin of values: patent US20110097274A1

- Tested on: SERT
- ASSAY_PROTOCOL: Baboon PET imaging: brain uptake, kinetic analysis and SERT parameters
- Assay type: in vivo
- EXPERIMENTAL_PARAMETERS: Mean ± SD of four experiments in two baboons
RECORDED_METRIC: Equilibrium specific to non-specific partition coefficient (V3″) Hippocampus

- CN(C)Cc1ccccc1Sc1ccc(Br)cc1N [[^11C]DAPA]: 0.53
- CN(C)Cc1ccccc1Sc1ccc(C#N)cc1N [[^11C]DASB]: 0.58
- CN(C)Cc1ccccc1Sc1ccc(I)cc1N [[^11C]ADAM]: 0.44
- CN([11CH3])Cc1ccccc1Sc1ccc(CF)cc1N [[^11C]AFM]: 0.69
